Assign Phage binding ELISA, Anti-PSMA Fab signal in the presence of PSMA to each entry below.
target.under.test: T1, Anti-PSMA Fab (SEQ ID NOs: 19, 20)
T1 construct: Biotinylated and captured on neutravidin coated plates in the phage ELISA; also called 006 PSMA Fab
test: phage ELISA; captured PSMA Fab pre-incubated with PSMA antigen as competitor, anti-M13 HRP detection
Answer with a bare number; do not write a unit.

Fill in reported Phage binding ELISA, Anti-PSMA Fab signal in the presence of PSMA for this entry: VEHWCTPRWMCRGF (Clonal phage of the peptide-180 library, tested as crude supernatant; not shown: pIII of the bacteriophage, to which the peptide is fused) [Phage-2176]
0.0605

Fill in reported Phage binding ELISA, Anti-PSMA Fab signal in the presence of PSMA for this entry: DENWCKPLWMCKGF (Clonal phage of the peptide-180 library, tested as crude supernatant; not shown: pIII of the bacteriophage, to which the peptide is fused) [Phage-2170]
0.105

Fill in reported Phage binding ELISA, Anti-PSMA Fab signal in the presence of PSMA for this entry: EVKLCRPPWMCEIF (Clonal phage of the peptide-180 library, tested as crude supernatant; not shown: pIII of the bacteriophage, to which the peptide is fused) [Phage-2162]
0.0633

Fill in reported Phage binding ELISA, Anti-PSMA Fab signal in the presence of PSMA for this entry: ESMLCRPVWMCVGF (Clonal phage of the peptide-180 library, tested as crude supernatant; not shown: pIII of the bacteriophage, to which the peptide is fused) [Phage-2169]
0.0711

Fill in reported Phage binding ELISA, Anti-PSMA Fab signal in the presence of PSMA for this entry: YVNWCTPEWMCVGF (Clonal phage of the peptide-180 library, tested as crude supernatant; not shown: pIII of the bacteriophage, to which the peptide is fused) [Phage-2174]
0.0598

Fill in reported Phage binding ELISA, Anti-PSMA Fab signal in the presence of PSMA for this entry: MAMMCIPPWMCDTM (Clonal phage of the peptide-180 library, tested as crude supernatant; not shown: pIII of the bacteriophage, to which the peptide is fused) [Phage-2172]
0.0889

Fill in reported Phage binding ELISA, Anti-PSMA Fab signal in the presence of PSMA for this entry: DIRWCIPDWMCTET (Clonal phage of the peptide-180 library, tested as crude supernatant; not shown: pIII of the bacteriophage, to which the peptide is fused) [Phage-2164]
0.0725

Fill in reported Phage binding ELISA, Anti-PSMA Fab signal in the presence of PSMA for this entry: VVPWCIPVWMCNSQ (Clonal phage of the peptide-180 library, tested as crude supernatant; not shown: pIII of the bacteriophage, to which the peptide is fused) [Phage-2165]
0.0957

src = patent US20260242478A1
